# Tested System: Cytochrome P450 2C9 (Homo sapiens)
# Assay Method Text: Cytochrome P450 Family 2 Subfamily C Member 9 (CYP2C9) small molecule antagonists: luciferase reporter qHTS assay (AID 1671198); further: nearly all actives have a fitted effect of over 50% in size
# Measurement Context: P450-Glo CYP2C9 enzyme assay, luciferin luminescence; series mostly up to 53 µM
Records with an inconclusive call do not appear. Calls of active or inactive are those of the source. The call rests on the fitted dose curve; in most records, active means well fitted inhibition curve with a large enough effect in the repeat runs; inconclusive means weak or mixed curves; inactive means no such curve, though single readings can be large or run the other way.
Labels: y for active, n for inactive

>  <Compound>
CCCCCOc1ccc(C2SC(=O)NC2=O)cc1OCC (stereo not given)

>  <Class Label>
y

$$$$
>  <Compound>
OC[C@H]1O[C@@H](O[C@H]2[C@H](O)[C@@H](O)[C@H](O)O[C@@H]2CO)[C@H](O)[C@@H](O)[C@H]1O

>  <Class Label>
n

$$$$
>  <Compound>
CCOC(=O)C(Br)c1ccccc1 (stereo not given)

>  <Class Label>
y

$$$$
>  <Compound>
CCCCCCC

>  <Class Label>
n

$$$$
>  <Compound>
O=C(CC(=O)C(F)(F)F)c1ccccc1

>  <Class Label>
y

$$$$

----------
# Assay Method Text: qHTS assay for identifying genotoxic compounds that show differential cytotoxicity against isogenic chicken DT40 cell lines with known DNA damage response pathways - wild type cell line (AID 743012); further: nearly all actives have a fitted effect of over 60% in size
# Measurement Context: DT40 wild type chicken cells viability, CellTiter-Glo, 40 h; series mostly up to 68.4 µM
Records with an inconclusive call do not appear. The source made the active and inactive calls. Calls come from the whole dose curve; as a rule, active = well fitted cell-killing curve with a large enough effect in the repeat runs; inconclusive = weak or mixed curves, or effect the other way; inactive = no such curve, though single readings can be large or run the other way.
Labels: active, inactive

>  <Compound>
NCCC(O)(P(=O)(O)O)P(=O)(O)O

>  <Class Label>
inactive

$$$$
>  <Compound>
Nc1cccc(S(=O)(=O)O)c1

>  <Class Label>
inactive

$$$$
>  <Compound>
O=C(O)[C@@H](O)[C@H](O)[C@H](O)[C@@H](O)C(=O)O

>  <Class Label>
inactive

$$$$
>  <Compound>
CCCN(CCC)C(=O)C(CCC(=O)O)NC(=O)c1ccccc1 (configuration not stated)

>  <Class Label>
inactive

$$$$
>  <Compound>
Cc1ccc([N+](=O)[O-])c(N)c1

>  <Class Label>
inactive

$$$$
>  <Compound>
CCCCCCCCCCCCOCCOS(=O)(=O)O

>  <Class Label>
inactive

$$$$
>  <Compound>
CO[C@@]1(NC(=O)CSCC#N)C(=O)N2C(C(=O)O)=C(CSc3nnnn3C)CS[C@@H]21

>  <Class Label>
inactive

$$$$
>  <Compound>
CC(C)O

>  <Class Label>
inactive

$$$$
>  <Compound>
CCN[C@H]1CN(CCCOC)S(=O)(=O)c2sc(S(N)(=O)=O)cc21

>  <Class Label>
inactive

$$$$
>  <Compound>
Cc1nnc(SCC2=C(C(=O)O)N3C(=O)[C@@H](NC(=O)Cn4cnnn4)[C@H]3SC2)s1

>  <Class Label>
inactive

$$$$
>  <Compound>
Cc1c(C(=O)NCCO)[n+](=O)c2ccccc2n1[O-]

>  <Class Label>
inactive

$$$$
>  <Compound>
CN1CCN(C2=Nc3cc(F)ccc3Cc3ccccc32)CC1

>  <Class Label>
active

$$$$

----------
# Assay Method Text: A CellTox Green Cytotoxicity Assay to monitor cytotoxicity in HEK293 cells - 40 hour (AID 1224871); further: nearly all actives have a fitted effect of over 45% in size
# Measurement Context: CellTox Green fluorescence; series mostly up to 76.8 µM
Results filed as inconclusive are left out. Active and inactive are the calls of the source. Calls come from the whole dose curve; as a rule, active = well fitted activation curve with a large enough effect in the repeat runs; inconclusive = weak or mixed curves; inactive = flat fitted curve, though single readings scatter.
Labels: active, inactive

>  <Compound>
CCOC(=O)C1CC(=O)C(=C(O)C2CC2)C(=O)C1 (configuration not stated)

>  <Class Label>
inactive

$$$$
>  <Compound>
Clc1cccc(-c2cc(Cl)cc(Cl)c2)c1

>  <Class Label>
active

$$$$
>  <Compound>
Cc1nc(-c2ccccn2)ncc1C(=O)Nn1cc(C)c2cc(F)ccc21

>  <Class Label>
inactive

$$$$
>  <Compound>
O=C1CCN(c2ccccc2)N1

>  <Class Label>
inactive

$$$$
>  <Compound>
O=Cc1ccc(O)c(O)c1O

>  <Class Label>
inactive

$$$$
>  <Compound>
O=S(=O)(O)C(F)(F)F

>  <Class Label>
inactive

$$$$
>  <Compound>
CN1CCC[C@@H]1Cc1c[nH]c2ccc(CCS(=O)(=O)c3ccccc3)cc12

>  <Class Label>
inactive

$$$$

----------
# Tested System: Cytochrome P450 2C9 (Homo sapiens) (UniProt P11712)
# Sequence (P11712 whole entry, looked up): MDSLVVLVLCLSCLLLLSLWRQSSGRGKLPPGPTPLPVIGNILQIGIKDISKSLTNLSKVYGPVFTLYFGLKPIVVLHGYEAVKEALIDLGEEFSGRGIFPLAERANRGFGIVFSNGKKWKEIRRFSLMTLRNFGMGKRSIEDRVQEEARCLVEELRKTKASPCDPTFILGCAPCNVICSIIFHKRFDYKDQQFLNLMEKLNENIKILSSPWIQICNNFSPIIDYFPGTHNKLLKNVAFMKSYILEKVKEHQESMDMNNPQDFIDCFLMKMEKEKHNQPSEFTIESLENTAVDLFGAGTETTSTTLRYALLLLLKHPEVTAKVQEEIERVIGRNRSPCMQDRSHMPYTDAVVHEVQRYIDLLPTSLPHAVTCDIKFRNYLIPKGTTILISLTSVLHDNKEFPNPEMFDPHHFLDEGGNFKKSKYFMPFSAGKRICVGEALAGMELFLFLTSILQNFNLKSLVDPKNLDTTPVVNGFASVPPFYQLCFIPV
# Assay Method Text: Cytochrome P450 Family 2 Subfamily C Member 9 (CYP2C9) small molecule antagonists: luciferase reporter qHTS assay (AID 1671198); further: nearly all actives have a fitted effect of over 50% in size
# Measurement Context: P450-Glo CYP2C9 enzyme assay, luciferin luminescence; series mostly up to 53 µM
Inconclusive results are not listed. Activity calls are given as the source filed them. The call rests on the fitted dose curve; in most records, active means well fitted inhibition curve with a large enough effect in the repeat runs; inconclusive means weak or mixed curves; inactive means no such curve, though single readings can be large or run the other way.
Labels: active, inactive

>  <Compound>
OCc1ccccc1O

>  <Class Label>
inactive

$$$$
>  <Compound>
CCOc1ccc2nc(N)sc2c1

>  <Class Label>
active

$$$$
>  <Compound>
O=C(O)[C@@H](O)[C@H](O)[C@H](O)[C@@H](O)C(=O)O

>  <Class Label>
inactive

$$$$
>  <Compound>
OCCN1CCN(CCO)CC1

>  <Class Label>
inactive

$$$$
>  <Compound>
OCCN(CCO)CCN(CCO)CCO

>  <Class Label>
inactive

$$$$
>  <Compound>
COc1cc(N)c(Cl)cc1C(=O)NC1CCN(Cc2ccccc2)CC1

>  <Class Label>
inactive

$$$$
>  <Compound>
O=C1CCCCC1C1CCCCC1 (stereo not drawn)

>  <Class Label>
inactive

$$$$
>  <Compound>
CN1CCN(N)CC1

>  <Class Label>
inactive

$$$$
>  <Compound>
CCCN(CCC)C(=O)C(CCC(=O)O)NC(=O)c1ccccc1 (stereo not drawn)

>  <Class Label>
inactive

$$$$
>  <Compound>
O=C(O)c1ccccc1Nc1cc(Cl)ccc1C(=O)O

>  <Class Label>
inactive

$$$$
>  <Compound>
Cc1cn([C@@H]2O[C@H](CO)[C@@H](O)[C@@H]2F)c(=O)[nH]c1=O

>  <Class Label>
inactive

$$$$
>  <Compound>
C[C@@H]1CN(c2c(F)c(N)c3c(=O)c(C(=O)O)cn(C4CC4)c3c2F)C[C@H](C)N1

>  <Class Label>
inactive

$$$$
>  <Compound>
O=[N+]([O-])c1nccn1CO[C@@H](CO)[C@H](O)CO

>  <Class Label>
inactive

$$$$

----------
# Assay Method Text: qHTS assay to identify small molecule agonists or antagonists of the thyroid stimulating hormone receptor (TSHR) signaling pathway - wild type cell line counter screen (AID 1259384); further: on the % scale 0 is the no-effect control and ±100 the full control effect
# Measurement Context: HEK293 wild type, cAMP HTRF counter-screen, hits give high values; series mostly up to 92.4 µM
Inconclusive results are not listed. The source made the active and inactive calls. Calls follow the shape of the full dose curve.
Measure: cAMP activity change

>  <Compound>
CCOC(=O)[C@H](CCc1ccccc1)N[C@@H](C)C(=O)N1Cc2cc(OC)c(OC)cc2C[C@H]1C(=O)O

>  <Result>
inactive

$$$$
>  <Compound>
O=Cc1ccc(O)c(O)c1O

>  <Result>
inactive

$$$$
>  <Compound>
NNS(=O)(=O)c1ccc(Oc2ccc(S(=O)(=O)NN)cc2)cc1

>  <Result>
inactive

$$$$
>  <Compound>
CC/C=C\CCOC(=O)CCCCC

>  <Result>
inactive

$$$$
>  <Compound>
CN(C)C(=O)NC1(c2ccccc2)CCN(CCC[C@]2(c3ccc(Cl)c(Cl)c3)CCCN(C(=O)c3ccccc3)C2)CC1

>  <Result>
-1.66% [at 18.9 µM] (inactive)

$$$$
>  <Compound>
CC/C=C\CCOC(=O)C(C)C

>  <Result>
inactive

$$$$
>  <Compound>
CC(C)c1ccccc1

>  <Result>
inactive

$$$$
>  <Compound>
CC(C)OC(C)C

>  <Result>
inactive

$$$$
>  <Compound>
CCCCCCCCCC/C=C/C#N

>  <Result>
inactive

$$$$
>  <Compound>
CC(C)C(=O)OCC(C)(C)C(O)C(C)C (configuration not stated)

>  <Result>
inactive

$$$$
>  <Compound>
O=C1C=CC(=O)O1

>  <Result>
inactive

$$$$
>  <Compound>
CCOc1ccc2nc(N)sc2c1

>  <Result>
inactive

$$$$
>  <Compound>
CC(C)Nc1nc(N)nc(Cl)n1

>  <Result>
inactive

$$$$
>  <Compound>
CO[Si](C)(C)OC

>  <Result>
inactive

$$$$
>  <Compound>
C=CCCC=C

>  <Result>
inactive

$$$$
>  <Compound>
O=C1CCCCCCCCCCC(=O)OCCO1

>  <Result>
inactive

$$$$
>  <Compound>
CN1CCN(c2c(F)cc3c(=O)c(C(=O)O)cn(CCF)c3c2F)CC1

>  <Result>
inactive

$$$$
>  <Compound>
CCCOCCC

>  <Result>
inactive

$$$$
>  <Compound>
Cc1cc2nc(N)sc2cc1C

>  <Result>
inactive

$$$$
>  <Compound>
Cc1ccsc1C(=CCCN1CCC[C@@H](C(=O)O)C1)c1sccc1C

>  <Result>
inactive

$$$$
>  <Compound>
CCOC(=O)C(Br)c1ccccc1 (configuration not stated)

>  <Result>
inactive

$$$$
>  <Compound>
CC(C)C(=O)OC/C=C/c1ccccc1

>  <Result>
inactive

$$$$
>  <Compound>
Cc1c(N)cccc1N

>  <Result>
inactive

$$$$
>  <Compound>
CCN(CCCc1ccccc1)CCCc1ccccc1

>  <Result>
inactive

$$$$
>  <Compound>
CN1[C@@H]2CC[C@H]1CC(OC(=O)c1c[nH]c3ccccc13)C2 (some centres not stated)

>  <Result>
inactive

$$$$
>  <Compound>
NS(=O)(=O)c1cc(-c2nn[nH]n2)c(NCc2cccs2)cc1Cl

>  <Result>
inactive

$$$$
>  <Compound>
CC1CN(c2ccccc2)NC1=O (configuration not stated)

>  <Result>
inactive

$$$$
